# System: Daphnia magna
# protocolSummary: Daphnia magna toxicity assay
# Assay type: in vivo
# experimentalParameters: 48 h, up to 200 µM
recordedMetric: Maximum Average L% (lethality) (%)
Output spec: scalar in %, unitless text.

Sure, the documented Maximum Average L% (lethality) for Nc1nnc(-c2ccccc2CS(=O)(=O)c2ccccc2)s1 is 20

Maximum Average L% (lethality) reported for this compound Nc1nnc(-c2ccccc2CSc2ccccc2)s1 : 10

What the record says about O=C(Nc1nnc(-c2ccccc2)s1)c1ccccc1CSc1ccccc1 : Maximum Average L% (lethality) is 55

What the record says about O=C(Nc1nnc(-c2ccccc2)s1)c1ccccc1 : Maximum Average L% (lethality) is 45

In plain terms, Nc1nnc(-c2ccc(O)c(O)c2)s1 has a documented Maximum Average L% (lethality) of 25

Maximum Average L% (lethality) for Cc1ccc(-c2nnc(N)s2)cc1 is 55

For CC(=O)Nc1nnc(-c2ccccc2)s1 the compound record lists Maximum Average L% (lethality) as 100

For this compound ( Nc1nnc(-c2ccccc2)s1 ), measured Maximum Average L% (lethality) is 40

Maximum Average L% (lethality) measured on COc1cc(-c2nnc(N)s2)cc(OC)c1OC = 5

Consider COc1ccc(OC)c(-c2nnc(N)s2)c1 . Its measured Maximum Average L% (lethality) is 95
